// reported log10(IC100) per item
# testedOn: Transcription factor p65 (Homo sapiens)
# procedureSummary: Inhibition of NF-kappaB DNA binding by EMSA
recordedMetric: log10(IC100) (log10 of the value in µM)

{"compound": "C=C1C(=O)O[C@H]2C/C(CO)=C/CC/C(COC(=O)C(C)(C)O)=C/C[C@H]12", "testedOn": "Transcription factor p65 (Homo sapiens)", "quantitativeResult": 1.70}
{"compound": "C=C(C)C(=O)O[C@@H]1/C=C(\\C=O)CCCC(=C)[C@H](O)[C@H]2OC(=O)C(=C)[C@@H]21", "testedOn": "Transcription factor p65 (Homo sapiens)", "quantitativeResult": 1.00}
{"compound": "C=C1[C@@H]2[C@H]3OC(=O)C(=C)[C@@H]3CCC(=C)[C@@H]2C[C@@H]1OC(C)=O", "testedOn": "Transcription factor p65 (Homo sapiens)", "quantitativeResult": 2.00}
{"compound": "C=C1C(=O)O[C@H]2/C=C(\\C)[C@@H](O)CC/C(C)=C/[C@@H](O)[C@H]12", "testedOn": "Transcription factor p65 (Homo sapiens)", "quantitativeResult": 2.30}
{"compound": "C=C1C(=O)O[C@@H]2[C@H]3C(C)=CC[C@@H](O)[C@]3(C)CC[C@@H]12", "testedOn": "Transcription factor p65 (Homo sapiens)", "quantitativeResult": 2.00}
{"compound": "C=C1C(=O)O[C@@H]2C[C@@]3(C)[C@H](O)CC[C@](O)(COC(=O)C(C)C)[C@@H]3C[C@H]12", "testedOn": "Transcription factor p65 (Homo sapiens)", "quantitativeResult": 2.30}
{"compound": "C=C1C(=O)O[C@H]2C[C@H](C)C3=CC(=O)[C@H](C)C3C[C@H]12 (some centres not stated)", "testedOn": "Transcription factor p65 (Homo sapiens)", "quantitativeResult": 1.30}
{"compound": "C=C1C(=O)O[C@H]2C/C(CO)=C/CC/C(COC(=O)C(C)CC)=C/C[C@H]12 (some centres not stated)", "testedOn": "Transcription factor p65 (Homo sapiens)", "quantitativeResult": 1.70}
{"compound": "C=C(C)C(=O)OC/C1=C\\C[C@@H]2C(=C)C(=O)O[C@H]2C/C(CO)=C/CC1", "testedOn": "Transcription factor p65 (Homo sapiens)", "quantitativeResult": 1.70}
{"compound": "C=C1C(=O)O[C@H]2C3=C(C(=O)C[C@@H]3C)[C@@H](C)CC[C@@H]12", "testedOn": "Transcription factor p65 (Homo sapiens)", "quantitativeResult": 1.30}
{"compound": "C=C1[C@@H]2[C@H]3OC(=O)C(=C)[C@@H]3CC[C@](C)(O)[C@@H]2C[C@@H]1O", "testedOn": "Transcription factor p65 (Homo sapiens)", "quantitativeResult": 2.30}
{"compound": "C=C1C(=O)O[C@@H]2C[C@H](C)[C@@H]3CC(=O)C(C)=C3C[C@H]12", "testedOn": "Transcription factor p65 (Homo sapiens)", "quantitativeResult": 1.70}
{"compound": "C=C(C)C(=O)O[C@H]1[C@H]2C(=C)C(=O)O[C@@H]2/C=C(\\COC(C)=O)CC/C=C(/C=O)[C@@H]1O", "testedOn": "Transcription factor p65 (Homo sapiens)", "quantitativeResult": 0.70}
{"compound": "C=C1C(=O)O[C@@H]2/C=C(/C)[C@]3(O)O[C@](C)(C[C@@H](OC(=O)C(C)C)[C@@H]12)C(=O)[C@@H]3OC", "testedOn": "Transcription factor p65 (Homo sapiens)", "quantitativeResult": 2.30}
{"compound": "C=C(C)C(=O)O[C@H]1[C@H]2C(=C)C(=O)O[C@@H]2/C=C(\\C)CC/C=C(/C=O)[C@@H]1O", "testedOn": "Transcription factor p65 (Homo sapiens)", "quantitativeResult": 1.00}
{"compound": "C=C1C(=O)O[C@@H]2/C=C(\\C)CC/C=C(\\C)[C@@H](OC(C)=O)C[C@@H]12", "testedOn": "Transcription factor p65 (Homo sapiens)", "quantitativeResult": 2.30}
{"compound": "C=C(C)C(=O)O[C@H]1[C@H]2C(=C)C(=O)O[C@@H]2[C@@H]2O[C@]2(C)CC/C=C(/C=O)[C@@H]1O", "testedOn": "Transcription factor p65 (Homo sapiens)", "quantitativeResult": 1.00}
